- Target entity: Vascular endothelial growth factor receptor 2 (Homo sapiens, UniProt P35968)
- Sequence (P35968 whole entry, the tested form may be a part): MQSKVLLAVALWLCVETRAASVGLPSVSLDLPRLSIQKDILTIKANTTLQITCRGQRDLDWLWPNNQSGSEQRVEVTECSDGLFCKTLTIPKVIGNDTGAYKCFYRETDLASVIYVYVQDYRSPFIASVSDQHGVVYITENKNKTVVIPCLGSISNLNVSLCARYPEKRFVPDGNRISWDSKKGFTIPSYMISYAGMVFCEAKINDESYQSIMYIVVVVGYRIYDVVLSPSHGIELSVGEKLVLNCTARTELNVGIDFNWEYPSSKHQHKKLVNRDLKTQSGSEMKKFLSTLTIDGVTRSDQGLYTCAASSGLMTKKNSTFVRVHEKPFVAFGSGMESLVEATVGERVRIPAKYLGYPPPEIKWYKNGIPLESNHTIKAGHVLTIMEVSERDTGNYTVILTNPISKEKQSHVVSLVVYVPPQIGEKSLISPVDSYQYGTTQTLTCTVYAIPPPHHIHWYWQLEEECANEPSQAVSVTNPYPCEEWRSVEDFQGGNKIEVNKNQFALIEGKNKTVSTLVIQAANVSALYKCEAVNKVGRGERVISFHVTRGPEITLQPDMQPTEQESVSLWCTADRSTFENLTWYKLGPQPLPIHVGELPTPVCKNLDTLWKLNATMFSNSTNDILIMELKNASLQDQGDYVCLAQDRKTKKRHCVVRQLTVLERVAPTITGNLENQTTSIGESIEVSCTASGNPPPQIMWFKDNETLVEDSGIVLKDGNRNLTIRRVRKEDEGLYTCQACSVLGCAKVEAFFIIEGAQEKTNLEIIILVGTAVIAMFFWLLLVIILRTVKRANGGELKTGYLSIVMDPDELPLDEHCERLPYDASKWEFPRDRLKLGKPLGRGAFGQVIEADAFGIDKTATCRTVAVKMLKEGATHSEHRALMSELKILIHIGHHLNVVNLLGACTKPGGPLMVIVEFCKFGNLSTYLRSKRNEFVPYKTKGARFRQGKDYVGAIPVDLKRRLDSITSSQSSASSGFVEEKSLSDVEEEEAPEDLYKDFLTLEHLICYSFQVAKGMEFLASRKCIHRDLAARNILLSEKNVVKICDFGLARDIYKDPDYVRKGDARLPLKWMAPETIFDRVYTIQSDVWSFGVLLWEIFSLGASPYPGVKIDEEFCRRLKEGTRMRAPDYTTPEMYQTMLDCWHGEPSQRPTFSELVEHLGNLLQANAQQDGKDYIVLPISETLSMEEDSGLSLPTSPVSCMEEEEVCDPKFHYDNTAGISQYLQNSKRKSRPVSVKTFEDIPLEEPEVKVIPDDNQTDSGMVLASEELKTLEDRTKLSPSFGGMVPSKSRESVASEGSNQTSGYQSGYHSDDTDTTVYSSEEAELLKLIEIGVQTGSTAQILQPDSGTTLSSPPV
- Assay info: Inhibition of recombinant GST-fused VEGFR2 expressed in baculovirus infected Sf9 cells by DELFIA
Readout: IC50 (nM)

Below: 3 compounds and their reported IC50.
Compound | IC50 / nM
Cn1cnc(-c2cc3nccc(Oc4ccc(NC(=O)CC(Nc5ccccc5)C(F)(F)F)cc4F)c3s2)c1 (configuration not stated) | 210
COc1cc2nccc(Oc3ccc(NC(CC(=O)Nc4ccccc4)C(F)(F)F)cc3F)c2cc1OC (configuration not stated) | 30
COc1cc2ncnc(Oc3ccc(NC(=O)CC(Nc4ccccc4)C(F)(F)F)cc3F)c2cc1OC (configuration not stated) | 860

(a) Cn1cnc(-c2cc3nccc(Oc4ccc(NC(CC(=O)Nc5ccc(F)cc5)C(F)(F)F)cc4)c3s2)c1 (configuration not stated)
(b) COc1cc2nccc(Oc3ccc(NC(=O)CC(Nc4ccccc4)C(F)(F)F)cc3F)c2cc1OC (configuration not stated)
(c) O=C(CC(Nc1ccc(F)cc1)C(F)(F)F)Nc1ccc(Oc2cc(NC(=O)N3CCCC3)ncn2)c(F)c1 (configuration not stated)
(d) Cn1cnc(-c2cc3nccc(Oc4ccc(NC(CC(=O)Nc5ccccc5)C(F)(F)F)cc4F)c3s2)c1 (configuration not stated)
## Task Hello, I need these entries ordered by IC50, highest reading first. Thanks! I'd appreciate it if you listed the labels in the requested order.
## Result c, b, a, d

* * *

- Target entity: Hepatocyte growth factor receptor (Homo sapiens)
- Assay info: Inhibition of recombinant GST-fused c-Met expressed in baculovirus infected high five cells by DELFIA
- Sequence (P08581 whole entry, the tested form may be a part): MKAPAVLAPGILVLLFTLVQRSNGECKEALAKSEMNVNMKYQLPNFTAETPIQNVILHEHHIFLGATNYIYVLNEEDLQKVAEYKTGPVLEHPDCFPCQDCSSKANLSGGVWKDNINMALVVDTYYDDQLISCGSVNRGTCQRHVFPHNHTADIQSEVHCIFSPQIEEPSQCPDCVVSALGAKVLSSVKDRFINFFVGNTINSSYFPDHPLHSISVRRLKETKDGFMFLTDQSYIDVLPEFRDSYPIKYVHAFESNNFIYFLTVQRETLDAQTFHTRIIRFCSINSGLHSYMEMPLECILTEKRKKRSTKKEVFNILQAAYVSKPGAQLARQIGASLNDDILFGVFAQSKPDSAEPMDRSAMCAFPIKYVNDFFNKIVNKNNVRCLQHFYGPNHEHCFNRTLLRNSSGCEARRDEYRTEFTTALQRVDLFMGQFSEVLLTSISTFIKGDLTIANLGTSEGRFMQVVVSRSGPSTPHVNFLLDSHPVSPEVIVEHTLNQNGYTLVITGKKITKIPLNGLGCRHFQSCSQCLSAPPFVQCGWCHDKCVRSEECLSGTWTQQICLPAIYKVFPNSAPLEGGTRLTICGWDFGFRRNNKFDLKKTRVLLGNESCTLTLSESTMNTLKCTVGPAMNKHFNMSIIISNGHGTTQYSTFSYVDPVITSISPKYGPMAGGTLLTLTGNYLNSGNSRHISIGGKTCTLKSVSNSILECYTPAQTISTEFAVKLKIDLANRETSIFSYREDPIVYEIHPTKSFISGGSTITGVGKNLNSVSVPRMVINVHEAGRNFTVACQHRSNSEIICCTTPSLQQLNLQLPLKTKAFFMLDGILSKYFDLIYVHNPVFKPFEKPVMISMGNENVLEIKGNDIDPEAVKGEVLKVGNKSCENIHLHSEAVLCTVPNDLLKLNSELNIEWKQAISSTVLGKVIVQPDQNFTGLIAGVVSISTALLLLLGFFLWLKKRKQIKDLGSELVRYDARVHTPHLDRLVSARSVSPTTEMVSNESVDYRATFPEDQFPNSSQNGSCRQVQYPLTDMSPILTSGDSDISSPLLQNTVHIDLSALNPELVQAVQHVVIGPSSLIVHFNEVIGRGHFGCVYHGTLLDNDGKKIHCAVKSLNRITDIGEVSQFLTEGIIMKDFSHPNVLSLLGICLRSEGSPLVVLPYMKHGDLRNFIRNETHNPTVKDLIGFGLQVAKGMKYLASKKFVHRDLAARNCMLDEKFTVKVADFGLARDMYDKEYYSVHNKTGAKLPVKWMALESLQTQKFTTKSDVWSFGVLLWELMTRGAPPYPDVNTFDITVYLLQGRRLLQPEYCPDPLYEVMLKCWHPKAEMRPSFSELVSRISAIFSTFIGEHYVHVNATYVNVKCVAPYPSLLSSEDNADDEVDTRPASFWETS
pIC50: −log10 of the molar value.
Readout: pIC50

Compound | pIC50
COc1cc2nccc(Oc3ccc(NC(=O)CC(Nc4ccccc4)C(F)(F)F)cc3F)c2cc1OC (stereo not given) | 6.17

(I) Cn1cnc(-c2cc3nccc(Oc4ccc(NC(CC(=O)Nc5ccc(F)cc5)C(F)(F)F)cc4)c3s2)c1 (stereo not given)
(II) Cn1cnc(-c2cc3nccc(Oc4ccc(NC(=O)CC(=O)Nc5ccccc5)cc4F)c3s2)c1
(III) Cn1cnc(-c2cc3nccc(Oc4ccc(NC(CC(=O)Nc5ccc(F)cc5)C(F)(F)F)cc4F)c3s2)c1 (stereo not given)
## Task Number of compounds to sort: 3. Sort criterion: pIC50, ascending. Order the labels as requested and list them.
## Result I, III, II

(1) CN(C(=O)CC(=O)Nc1ccc(Oc2ccnc3cc(-c4cn(C)cn4)sc23)c(F)c1)c1ccccc1
(2) COc1cc2nccc(Oc3ccc(NC(CC(=O)Nc4ccccc4)C(F)(F)F)cc3F)c2cc1OC (stereo not given)
## Task Of 1 and 2 , whose reported pIC50 is the larger number? Bench note: the answer is the label of the chosen record.
## Result 1
(1: 7.40, 2: 6.04)

* * *

- Target entity: Hepatocyte growth factor receptor (Homo sapiens, UniProt P08581)
- Assay info: Inhibition of TPR-fused Met autophosphorylation expressed in HEK293T cells after 150 mins by ELISA
- Type: cell-based
- Condition description: hek-293t
- Sequence (P08581 25-1390 limits assumed): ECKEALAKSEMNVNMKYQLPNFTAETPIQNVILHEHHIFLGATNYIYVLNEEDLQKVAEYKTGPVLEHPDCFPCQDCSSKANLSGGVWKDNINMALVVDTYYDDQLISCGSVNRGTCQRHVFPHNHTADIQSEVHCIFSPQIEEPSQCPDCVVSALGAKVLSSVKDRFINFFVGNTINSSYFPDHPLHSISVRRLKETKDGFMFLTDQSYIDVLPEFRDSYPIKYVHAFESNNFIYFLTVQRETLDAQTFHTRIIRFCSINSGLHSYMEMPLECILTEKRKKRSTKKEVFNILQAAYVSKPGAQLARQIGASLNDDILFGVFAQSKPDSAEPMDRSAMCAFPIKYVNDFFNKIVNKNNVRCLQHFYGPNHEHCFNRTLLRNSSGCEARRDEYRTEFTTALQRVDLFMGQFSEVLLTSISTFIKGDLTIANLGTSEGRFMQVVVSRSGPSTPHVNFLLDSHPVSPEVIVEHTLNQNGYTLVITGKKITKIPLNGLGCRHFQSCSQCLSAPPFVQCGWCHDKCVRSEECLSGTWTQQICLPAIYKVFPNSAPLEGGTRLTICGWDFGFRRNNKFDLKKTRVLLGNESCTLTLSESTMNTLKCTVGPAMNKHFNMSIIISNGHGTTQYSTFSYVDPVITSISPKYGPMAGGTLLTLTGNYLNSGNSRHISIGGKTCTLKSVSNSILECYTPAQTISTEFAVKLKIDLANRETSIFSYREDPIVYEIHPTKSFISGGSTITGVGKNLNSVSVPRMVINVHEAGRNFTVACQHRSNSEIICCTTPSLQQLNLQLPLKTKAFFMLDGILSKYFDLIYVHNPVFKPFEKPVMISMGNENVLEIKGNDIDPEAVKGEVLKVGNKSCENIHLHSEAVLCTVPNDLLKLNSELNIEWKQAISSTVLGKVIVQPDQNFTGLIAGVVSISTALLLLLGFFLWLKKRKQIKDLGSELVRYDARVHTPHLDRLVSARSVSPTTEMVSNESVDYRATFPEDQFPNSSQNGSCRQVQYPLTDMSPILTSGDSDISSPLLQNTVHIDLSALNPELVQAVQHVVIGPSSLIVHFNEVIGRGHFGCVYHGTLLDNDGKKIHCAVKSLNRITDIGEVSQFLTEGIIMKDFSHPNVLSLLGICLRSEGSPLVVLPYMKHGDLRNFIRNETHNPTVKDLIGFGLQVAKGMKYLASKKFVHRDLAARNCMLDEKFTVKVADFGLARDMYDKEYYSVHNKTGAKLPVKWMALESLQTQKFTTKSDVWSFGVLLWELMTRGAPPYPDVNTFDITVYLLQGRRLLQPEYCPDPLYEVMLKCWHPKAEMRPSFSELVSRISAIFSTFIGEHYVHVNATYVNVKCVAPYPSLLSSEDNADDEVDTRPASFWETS
Readout: IC50 (nM)

(1) Cn1cnc(-c2cc3nccc(Oc4ccc(NC(CC(=O)Nc5ccc(F)cc5)C(F)(F)F)cc4)c3s2)c1 (stereo not drawn)
(2) COc1ccccc1NC(=O)CC(Nc1ccc(Oc2ccnc3cc(-c4cn(C)cn4)sc23)c(F)c1)C(F)(F)F (stereo not drawn)
(3) Cn1cnc(-c2cc3nccc(Oc4ccc(NC(CC(=O)Nc5ccc(F)cc5)C(F)(F)F)cc4F)c3s2)c1 (stereo not drawn)
## Task Returns the items ordered by IC50, from maximum to minimum. Write the labels, ordered according to the request.
## Result 2, 1, 3
(2: 1800 nM, 1: 880 nM, 3: 370 nM)
